Tested on: Plasmodium berghei
test: Luciferase/luciferin-expressing antifolate-resistant parasites were used to infect a culture of HepG2 cells that were pre-incubated with compounds. Infected hepatocytes emit light due to the luciferase reaction. Assay results are presented as the percent inhibition of light emission compared to control. […]
Format: functional
condition-description: sporozoite, HEPG2TOX_HILL_SLOPE 1.25, HEPG2TOX_R_SQUARED 0.965, PBLUC_HILL_SLOPE 1.25, PBLUC_R_SQUARED 0.656, read-out: LUCIFERASE INFECTION ASSAY - IC50
measurement-name: pIC50
Friendly reminder that pIC50 comes from taking -log10 of the concentration in mol/L.

// pIC50 (Plasmodium berghei) for c1ccc(-n2c(SCc3nc(-c4cccs4)no3)nnc2-c2ccc3c(c2)OCO3)cc1 = 5.94
